- system-name: Cholecystokinin receptor type A (Rattus norvegicus) (UniProt P30551)
- Sequence (whole entry): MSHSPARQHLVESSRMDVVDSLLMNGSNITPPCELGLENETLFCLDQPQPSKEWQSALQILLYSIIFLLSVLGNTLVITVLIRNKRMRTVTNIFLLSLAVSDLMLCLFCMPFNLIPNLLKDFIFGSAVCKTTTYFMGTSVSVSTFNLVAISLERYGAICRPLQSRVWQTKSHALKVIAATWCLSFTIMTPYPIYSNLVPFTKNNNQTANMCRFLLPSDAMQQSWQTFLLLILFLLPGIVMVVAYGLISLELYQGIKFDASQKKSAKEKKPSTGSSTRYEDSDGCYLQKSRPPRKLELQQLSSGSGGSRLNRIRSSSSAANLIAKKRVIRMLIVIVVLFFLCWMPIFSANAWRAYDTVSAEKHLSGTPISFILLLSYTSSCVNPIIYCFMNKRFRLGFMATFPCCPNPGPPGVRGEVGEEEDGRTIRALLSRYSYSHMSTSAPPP
- assay-summary: Binding affinity towards Cholecystokinin type A receptor (CCK-A) receptor from rat pancreas using [125I]bolton Hunter CCK-8 as radioligand at a concentration of 10 um
property: inhibition (%)

[I] Cc1cccc(NC(=O)NNc2nc3ccccc3c(=O)n2-c2cccc(F)c2)c1
[II] Cc1cccc(NC(=O)NNc2nc3ccccc3c(=O)n2-c2ccc(Cl)cc2)c1
[III] CCOC(=O)c1cccc(NC(=O)NNc2nc3ccccc3c(=O)n2-c2cccc3ccccc23)c1
[IV] CCOC(=O)c1cccc(NC(=O)NNc2nc3ccccc3c(=O)n2-c2ccc(Cl)c(Cl)c2)c1
[V] Cc1cccc(NC(=O)NNc2nc3ccccc3c(=O)n2-c2ccccc2)c1
Put the items in sequence by inhibition, from largest down. Submit the labels in the order that the ranking request calls for.
V, I, IV, II, III

[1] CCOC(=O)c1cccc(NC(=O)NNc2nc3ccccc3c(=O)n2-c2ccc(OC)cc2)c1
[2] CCOC(=O)c1cccc(NC(=O)NNc2nc3ccccc3c(=O)n2-c2cccc(F)c2)c1
I would appreciate it if you could say which entry, 1 or 2 , has the lower inhibition value. Record your answer as the label of the chosen record.
1
(1: 20%, 2: 30%)

[1] Cc1cccc(NC(=O)NNc2nc3ccccc3c(=O)n2-c2cccc(Cl)c2)c1
[2] N#Cc1cccc(NC(=O)NNc2nc3ccccc3c(=O)n2-c2ccccc2)c1
[3] Cc1cccc(NC(=O)NNc2nc3ccccc3c(=O)n2-c2ccc(Cl)c(Cl)c2)c1
[4] Cc1cccc(NC(=O)NNc2nc3ccccc3c(=O)n2-c2cccc3ccccc23)c1
Number of compounds to sort: 4. Sort criterion: inhibition, ascending. Submit the labels in the order that the ranking request calls for.
4, 3, 1, 2

----------
- assay-summary: The compound was tested for the time to reach maximum observed plasma concentration in rats and is expressed in mins.
- Assay type: ADME, organism-based
- condition-context: rat
property: Tmax (min)
Just the number in min, nothing appended.

Determine its reported Tmax: CN(C)c1cccc(-n2c(NNC(=O)Nc3cccc(C#N)c3)nc3ccccc3c2=O)c1
25

----------
- assay-summary: The compound tested for maximum observed plasma concentration in rats and is expressed in microgram/mL.
- Format: ADME, organism-based
- condition-context: rat
property: Cmax (ng/mL)
Just the number in ng/mL, nothing appended.

Determine its reported Cmax: CN(C)c1cccc(-n2c(NNC(=O)Nc3cccc(C#N)c3)nc3ccccc3c2=O)c1
910

----------
- assay-summary: The compound was tested for systemic plasma clearance(CL) in rats and is expressed in mL/min/kg.
- Assay type: ADME, organism-based
- condition-context: rat
property: clearance (mL/min/kg)

[a] CN(C)c1cccc(-n2c(NNC(=O)Nc3cccc(C#N)c3)nc3ccccc3c2=O)c1
[b] CC(C)Oc1cccc(-n2c(NNC(=O)Nc3cccc(C(=O)OC(C)(C)C)c3)nc3ccccc3c2=O)c1
Parameter check: reported clearance is higher for which label, a or b ? Record your answer as the label of the chosen record.
a

----------
Recorded below: IC50, system Gastrin/cholecystokinin type B receptor (Mus musculus).
property: IC50 (nM)

Known IC50 results, listed for orientation:
structure-notation	system-name	IC50 (nM)
CCOC(=O)c1cccc(NC(=O)NNc2nc3ccccc3c(=O)n2-c2cccc(OC)c2)c1	Gastrin/cholecystokinin type B receptor (Mus musculus)	15
CC(C)Oc1cccc(-n2c(NNC(=O)Nc3ccc(C(F)(F)F)cc3)nc3ccccc3c2=O)c1	Gastrin/cholecystokinin type B receptor (Mus musculus)	38
CCOC(=O)c1cccc(NC(=O)NNc2nc3ccccc3c(=O)n2-c2cccc(F)c2)c1	Gastrin/cholecystokinin type B receptor (Mus musculus)	26

[A] CCOC(=O)c1cccc(NC(=O)NNc2nc3ccccc3c(=O)n2-c2ccc(OC)c(OC)c2)c1
[B] Cc1cccc(NC(=O)NNc2nc3ccccc3c(=O)n2-c2cccc(N(C)C)c2)c1
Parameter check: reported IC50 is higher for which label, A or B ? Record your answer as the label of the chosen record.
A
(A: 611 nM, B: 63 nM)

----------
- assay-summary: The compound was tested for percent absolute oral bioavailability (%F) in rats
- Assay type: ADME, organism-based
- condition-context: rat, in vivo
property: bioavailability

Determine its reported bioavailability: CC(C)Oc1cccc(-n2c(NNC(=O)Nc3cccc(C(=O)OC(C)(C)C)c3)nc3ccccc3c2=O)c1
< 5%

----------
- system-name: Gastrin/cholecystokinin type B receptor (Mus musculus)
- Sequence (P56481 whole entry): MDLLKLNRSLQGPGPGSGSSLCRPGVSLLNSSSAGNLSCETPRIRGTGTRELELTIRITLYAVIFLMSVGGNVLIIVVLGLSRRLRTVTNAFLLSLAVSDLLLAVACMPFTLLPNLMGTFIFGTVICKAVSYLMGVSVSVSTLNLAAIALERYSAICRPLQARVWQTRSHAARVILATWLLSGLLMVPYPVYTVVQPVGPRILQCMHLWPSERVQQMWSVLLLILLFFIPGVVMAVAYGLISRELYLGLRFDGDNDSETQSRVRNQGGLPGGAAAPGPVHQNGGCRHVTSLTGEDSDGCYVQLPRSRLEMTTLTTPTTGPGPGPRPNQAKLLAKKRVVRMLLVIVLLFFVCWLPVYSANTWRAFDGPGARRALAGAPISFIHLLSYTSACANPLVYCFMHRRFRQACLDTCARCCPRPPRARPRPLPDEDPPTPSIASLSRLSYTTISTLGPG
property: IC50 (nM)

structure-notation	system-name	IC50 [nM]
CC(C)Oc1cccc(-n2c(NNC(=O)Nc3ccccc3)nc3ccccc3c2=O)c1	Gastrin/cholecystokinin type B receptor (Mus musculus)	15
Cc1cccc(NC(=O)NNc2nc3ccccc3c(=O)n2-c2cccc(Cl)c2Cl)c1	Gastrin/cholecystokinin type B receptor (Mus musculus)	73
CCOc1cccc(-n2c(NNC(=O)Nc3cccc(C)c3)nc3ccccc3c2=O)c1	Gastrin/cholecystokinin type B receptor (Mus musculus)	45
CN(C)c1cccc(-n2c(CCc3c[nH]c4cc(Br)ccc34)nc3ccccc3c2=O)c1	Gastrin/cholecystokinin type B receptor (Mus musculus)	16
COc1cccc(N(CC(=O)N(C)c2ccccc2)C(=O)CNC(=O)Nc2cccc(C)c2)c1	Gastrin/cholecystokinin type B receptor (Mus musculus)	8
COc1cccc(NC(=O)NNc2nc3ccccc3c(=O)n2-c2cccc(OC(C)C)c2)c1	Gastrin/cholecystokinin type B receptor (Mus musculus)	22

[P] CC(C)Oc1cccc(-n2c(NNC(=O)Nc3ccc(Br)cc3)nc3ccccc3c2=O)c1
[Q] CC(C)Oc1cccc(-n2c(NNC(=O)c3ccc(Br)cc3)nc3ccccc3c2=O)c1
I would appreciate it if you could say which entry, P or Q , has the lower IC50 value. Record your answer as the label of the chosen record.
P
(P: 14 nM, Q: 88 nM)

----------
- system-name: Gastrin/cholecystokinin type B receptor (Mus musculus)
- Sequence (P56481 whole entry): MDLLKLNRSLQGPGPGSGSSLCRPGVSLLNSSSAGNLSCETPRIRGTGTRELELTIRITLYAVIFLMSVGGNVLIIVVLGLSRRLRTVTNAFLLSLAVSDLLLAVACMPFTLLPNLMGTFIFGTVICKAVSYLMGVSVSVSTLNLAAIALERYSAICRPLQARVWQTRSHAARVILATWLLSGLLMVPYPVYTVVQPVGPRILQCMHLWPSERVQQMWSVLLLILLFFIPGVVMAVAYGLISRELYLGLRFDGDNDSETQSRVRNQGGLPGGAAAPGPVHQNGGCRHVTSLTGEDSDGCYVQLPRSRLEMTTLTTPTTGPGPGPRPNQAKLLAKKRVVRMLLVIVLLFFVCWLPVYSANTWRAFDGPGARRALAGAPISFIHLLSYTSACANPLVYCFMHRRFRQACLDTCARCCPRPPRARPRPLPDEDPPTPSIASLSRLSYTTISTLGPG
pIC50: −log10 of the molar value.
property: pIC50

Known pIC50 results, listed for orientation:
structure-notation	system-name	property	observed-measurement
CCOC(=O)c1cccc(NC(=O)NNc2nc3ccccc3c(=O)n2-c2cccc(OCC)c2)c1	Gastrin/cholecystokinin type B receptor (Mus musculus)	pIC50	8.30
Cc1cccc(NC(=O)NNc2nc3ccccc3c(=O)n2-c2cccc(Cl)c2)c1	Gastrin/cholecystokinin type B receptor (Mus musculus)	pIC50	6.65

[A] Cc1cccc(NC(=O)NNc2nc3ccccc3c(=O)n2-c2ccc(Cl)c(Cl)c2)c1
[B] CCOC(=O)c1cccc(NC(=O)NNc2nc3ccccc3c(=O)n2-c2ccc(Cl)cc2)c1
[C] CCOC(=O)c1cccc(NC(=O)NNc2nc3ccccc3c(=O)n2-c2ccc(OC)cc2)c1
[D] COc1cccc(-n2c(NNC(=O)Nc3cccc(C)c3)nc3ccccc3c2=O)c1
[E] CC(C)Oc1cccc(-n2c(NNC(=O)Nc3cccc(Cl)c3)nc3ccccc3c2=O)c1
Number of compounds to sort: 5. Sort criterion: pIC50, ascending. Submit the labels in the order that the ranking request calls for.
C, D, A, B, E
